Entries and their measured 5+ nucleoli phenotype percent effect follow.
- Test system: MCF10A
- experimentalDetails: 5+ nucleoli phenotype percent effect (relative to siNT 0% and siKIF11 100%); higher = more cells with five or more nucleoli
- particulars: 20 nM; 72 h

biosequence | unitsLabel | 5+ nucleoli phenotype percent effect
UUAGUGAAGGCUAUUUUAAUU [hsa-miR-3606-5p] | % | -9.93
ACACUGUCCCCUUCUCCCCAG [hsa-miR-6760-3p] | % | 56.3
UAAAGACUGUAGAGGCAACUGGU [hsa-miR-7161-5p] | % | 33.8
CUGGACUGAGCCGUGCUACUGG [hsa-miR-1269a] | % | -26.1
CUGCCAUGUCUAAGAAGAAAAC [hsa-miR-4659a-5p] | % | -0.515
CCUCCUGCCCUCCUUGCUGU [hsa-miR-1976] | % | 21.5
